Reported MRT inf values follow for various compounds
experiment: MRT(0 to infinity) in ICR mouse at 1 mg/kg, iv measured upto 24 hrs by LC-MS/MS analysis; format: ADME, organism-based; settings: in vivo
Provide only the numeric value, understood in min.

C[C@@H](COCCC(=O)N1CCN(c2ncc(C(F)(F)F)cn2)CC1)Nc1cn[nH]c(=O)c1C(F)(F)F : 12

Moving on to the next compound.
Return MRT inf (reported value) for this compound: C[C@@H](CN1CC(C(=O)N2CCN(c3ncc(C(F)(F)F)cn3)CC2)C1)Nc1cn[nH]c(=O)c1C(F)(F)F
101

====

target: Protein mono-ADP-ribosyltransferase PARP10 (Homo sapiens); assay: Inhibition of human recombinant N-terminal FLAG-tagged / C-terminal Strep-tagged PARP10 (805 to 1025 end residues) expressed in baculovirus infected Sf9 cells expression system incubated for 1 hr by ELISA assay
Sequence (Q53GL7 whole entry): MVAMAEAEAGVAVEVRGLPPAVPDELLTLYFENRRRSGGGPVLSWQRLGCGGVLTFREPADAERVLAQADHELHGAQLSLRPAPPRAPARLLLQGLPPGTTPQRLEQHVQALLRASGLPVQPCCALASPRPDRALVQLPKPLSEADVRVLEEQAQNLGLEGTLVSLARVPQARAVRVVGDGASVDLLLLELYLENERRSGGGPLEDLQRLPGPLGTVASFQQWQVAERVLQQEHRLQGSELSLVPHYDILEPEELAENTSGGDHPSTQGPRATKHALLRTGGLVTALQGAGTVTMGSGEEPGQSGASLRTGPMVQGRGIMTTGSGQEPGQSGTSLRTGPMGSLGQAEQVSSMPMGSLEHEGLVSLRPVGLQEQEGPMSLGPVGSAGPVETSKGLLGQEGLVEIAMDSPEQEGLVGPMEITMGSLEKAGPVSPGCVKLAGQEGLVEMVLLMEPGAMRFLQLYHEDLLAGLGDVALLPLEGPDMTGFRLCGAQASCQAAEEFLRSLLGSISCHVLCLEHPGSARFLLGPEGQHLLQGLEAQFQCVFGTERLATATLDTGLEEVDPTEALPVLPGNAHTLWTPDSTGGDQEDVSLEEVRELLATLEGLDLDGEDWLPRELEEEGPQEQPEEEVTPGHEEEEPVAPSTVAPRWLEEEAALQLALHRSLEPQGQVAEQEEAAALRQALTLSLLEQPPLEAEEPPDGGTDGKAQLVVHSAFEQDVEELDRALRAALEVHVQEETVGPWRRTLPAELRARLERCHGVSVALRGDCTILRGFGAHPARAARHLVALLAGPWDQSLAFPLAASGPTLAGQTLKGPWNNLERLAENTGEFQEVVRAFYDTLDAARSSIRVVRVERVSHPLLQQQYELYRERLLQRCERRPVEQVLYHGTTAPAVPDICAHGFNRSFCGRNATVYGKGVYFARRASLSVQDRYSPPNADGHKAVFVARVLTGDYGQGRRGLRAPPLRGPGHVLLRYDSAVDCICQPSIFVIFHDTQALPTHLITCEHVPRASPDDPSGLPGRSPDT
experimentalEndpoint: pIC50
Entry type: numeric. Quantity: pIC50, the -log10 of concentration in molar units.

Return pIC50 (reported value) for this molecule: C[C@@H](CN1CC(C(=O)N2CCN(c3ncc(C(F)(F)F)cn3)CC2)C1)Nc1cn[nH]c(=O)c1C(F)(F)F
6.49

====

molecular target: Protein mono-ADP-ribosyltransferase PARP11 (Homo sapiens); experiment: Inhibition of human recombinant N-terminal GST-tagged / C-terminal His-tagged PARP11 (8 to 338 end residues) expressed in baculovirus infected Sf9 cells expression system incubated for 1 hr by ELISA assay
Sequence (Q9NR21 whole entry): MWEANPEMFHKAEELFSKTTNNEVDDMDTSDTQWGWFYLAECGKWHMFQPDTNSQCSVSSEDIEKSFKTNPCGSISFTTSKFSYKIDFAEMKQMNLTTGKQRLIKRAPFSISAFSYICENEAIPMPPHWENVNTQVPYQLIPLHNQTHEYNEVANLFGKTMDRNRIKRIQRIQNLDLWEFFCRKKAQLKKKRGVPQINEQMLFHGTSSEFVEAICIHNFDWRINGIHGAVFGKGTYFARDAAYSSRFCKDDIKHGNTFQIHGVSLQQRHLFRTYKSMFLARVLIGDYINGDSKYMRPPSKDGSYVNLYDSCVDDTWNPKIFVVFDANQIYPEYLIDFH
experimentalEndpoint: IC50 (µM)
Provide only the numeric value, understood in µM.

For Protein mono-ADP-ribosyltransferase PARP11 (Homo sapiens), give the measured IC50 of the entry C[C@@H](CN1CC(C(=O)N2CCN(c3ncc(C(F)(F)F)cn3)CC2)C1)Nc1cn[nH]c(=O)c1C(F)(F)F
32.2

====

test system: NCI-H1373; test: cells; settings: Homo sapiens, NCI-H1373, 144 h
experimentalEndpoint: IC50 (µM)
Provide only the numeric value, understood in µM.

For NCI-H1373, give the measured IC50 of the entry C[C@@H](CN1CC(C(=O)N2CCN(c3ncc(C(F)(F)F)cn3)CC2)C1)Nc1cn[nH]c(=O)c1C(F)(F)F
1.09

====

biological target: Protein mono-ADP-ribosyltransferase TIPARP (Homo sapiens, UniProt Q7Z3E1); assay: Inhibition of human recombinant N-terminal FLAG tagged PARP7 (400 to 657 end residues) incubated for 1 hr by ELISA assay
Output Yes for records whose IC50 is lower than 30 nM, No for records at or above 30 nM.

Below, 5 compounds whose answers are already recorded.
Cc1cnc(N2CCN(C(=O)C3CN(C[C@H](C)Nc4cn[nH]c(=O)c4C(F)(F)F)C3)CC2)nc1 : No
C[C@@H](CN1CC(C(=O)N2CCN(c3ccc4c(c3)OC(F)(F)O4)CC2)C1)Nc1cn[nH]c(=O)c1C(F)(F)F : Yes
C[C@@H](CN1CC(C(=O)N2CCN(c3ccc(C(F)(F)F)cn3)CC2)C1)Nc1cn[nH]c(=O)c1C(F)(F)F : Yes
C[C@@H](CN1CC(C(=O)N2CCN(c3ncc(C#N)cn3)CC2)C1)Nc1cn[nH]c(=O)c1C(F)(F)F : No
C[C@@H](CN1CC(C(=O)N2C3CC2CN(c2ncc(C(F)(F)F)cn2)C3)C1)Nc1cn[nH]c(=O)c1C(F)(F)F : No

Next up:
Lab log: compare recorded IC50 with 30 nM; is it strictly lower for CC1CN(c2ncc(C(F)(F)F)cn2)CC(C)N1C(=O)C1CN(C[C@H](C)Nc2cn[nH]c(=O)c2C(F)(F)F)C1 (stereo partly specified) ?
No

====

molecular target: Poly [ADP-ribose] polymerase 2 (Homo sapiens); assay: Inhibition of human recombinant N-terminal GST-tagged PARP2 (2 to 583 residues) expressed in baculovirus infected Sf9 cells expression system incubated for 1 hr by ELISA assay
Sequence (Q9UGN5 whole entry, the tested form may be a part): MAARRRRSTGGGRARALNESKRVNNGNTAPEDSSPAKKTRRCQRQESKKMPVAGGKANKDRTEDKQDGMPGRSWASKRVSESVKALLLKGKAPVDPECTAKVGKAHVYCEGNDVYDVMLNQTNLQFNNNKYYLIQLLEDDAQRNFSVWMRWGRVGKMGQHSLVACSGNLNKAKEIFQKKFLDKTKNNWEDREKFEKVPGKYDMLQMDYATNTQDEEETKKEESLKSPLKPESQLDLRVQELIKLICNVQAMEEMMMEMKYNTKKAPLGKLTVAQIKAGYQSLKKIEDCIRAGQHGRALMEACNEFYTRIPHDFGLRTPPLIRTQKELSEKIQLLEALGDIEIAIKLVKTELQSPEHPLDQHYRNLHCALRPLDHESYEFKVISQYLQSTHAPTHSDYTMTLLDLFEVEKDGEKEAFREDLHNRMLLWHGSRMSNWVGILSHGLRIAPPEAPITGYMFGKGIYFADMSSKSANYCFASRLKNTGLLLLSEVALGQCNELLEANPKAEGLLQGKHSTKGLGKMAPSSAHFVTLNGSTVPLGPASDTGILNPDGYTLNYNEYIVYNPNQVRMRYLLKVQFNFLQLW
experimentalEndpoint: IC50 (nM)
Provide only the numeric value, understood in nM.

Return IC50 (reported value) for this compound: C[C@@H](CN1CC(C(=O)N2CCN(c3ncc(C(F)(F)F)cn3)CC2)C1)Nc1cn[nH]c(=O)c1C(F)(F)F
546

====

target: Protein mono-ADP-ribosyltransferase PARP14 (Homo sapiens); experiment: Inhibition of human recombinant N-terminal 6his-tagged / GST-tagged PARP14 (1470 to 1801 end residues) expressed in baculovirus infected Sf9 cells expression system incubated for 1 hr by ELISA assay
Sequence (Q460N5 whole entry): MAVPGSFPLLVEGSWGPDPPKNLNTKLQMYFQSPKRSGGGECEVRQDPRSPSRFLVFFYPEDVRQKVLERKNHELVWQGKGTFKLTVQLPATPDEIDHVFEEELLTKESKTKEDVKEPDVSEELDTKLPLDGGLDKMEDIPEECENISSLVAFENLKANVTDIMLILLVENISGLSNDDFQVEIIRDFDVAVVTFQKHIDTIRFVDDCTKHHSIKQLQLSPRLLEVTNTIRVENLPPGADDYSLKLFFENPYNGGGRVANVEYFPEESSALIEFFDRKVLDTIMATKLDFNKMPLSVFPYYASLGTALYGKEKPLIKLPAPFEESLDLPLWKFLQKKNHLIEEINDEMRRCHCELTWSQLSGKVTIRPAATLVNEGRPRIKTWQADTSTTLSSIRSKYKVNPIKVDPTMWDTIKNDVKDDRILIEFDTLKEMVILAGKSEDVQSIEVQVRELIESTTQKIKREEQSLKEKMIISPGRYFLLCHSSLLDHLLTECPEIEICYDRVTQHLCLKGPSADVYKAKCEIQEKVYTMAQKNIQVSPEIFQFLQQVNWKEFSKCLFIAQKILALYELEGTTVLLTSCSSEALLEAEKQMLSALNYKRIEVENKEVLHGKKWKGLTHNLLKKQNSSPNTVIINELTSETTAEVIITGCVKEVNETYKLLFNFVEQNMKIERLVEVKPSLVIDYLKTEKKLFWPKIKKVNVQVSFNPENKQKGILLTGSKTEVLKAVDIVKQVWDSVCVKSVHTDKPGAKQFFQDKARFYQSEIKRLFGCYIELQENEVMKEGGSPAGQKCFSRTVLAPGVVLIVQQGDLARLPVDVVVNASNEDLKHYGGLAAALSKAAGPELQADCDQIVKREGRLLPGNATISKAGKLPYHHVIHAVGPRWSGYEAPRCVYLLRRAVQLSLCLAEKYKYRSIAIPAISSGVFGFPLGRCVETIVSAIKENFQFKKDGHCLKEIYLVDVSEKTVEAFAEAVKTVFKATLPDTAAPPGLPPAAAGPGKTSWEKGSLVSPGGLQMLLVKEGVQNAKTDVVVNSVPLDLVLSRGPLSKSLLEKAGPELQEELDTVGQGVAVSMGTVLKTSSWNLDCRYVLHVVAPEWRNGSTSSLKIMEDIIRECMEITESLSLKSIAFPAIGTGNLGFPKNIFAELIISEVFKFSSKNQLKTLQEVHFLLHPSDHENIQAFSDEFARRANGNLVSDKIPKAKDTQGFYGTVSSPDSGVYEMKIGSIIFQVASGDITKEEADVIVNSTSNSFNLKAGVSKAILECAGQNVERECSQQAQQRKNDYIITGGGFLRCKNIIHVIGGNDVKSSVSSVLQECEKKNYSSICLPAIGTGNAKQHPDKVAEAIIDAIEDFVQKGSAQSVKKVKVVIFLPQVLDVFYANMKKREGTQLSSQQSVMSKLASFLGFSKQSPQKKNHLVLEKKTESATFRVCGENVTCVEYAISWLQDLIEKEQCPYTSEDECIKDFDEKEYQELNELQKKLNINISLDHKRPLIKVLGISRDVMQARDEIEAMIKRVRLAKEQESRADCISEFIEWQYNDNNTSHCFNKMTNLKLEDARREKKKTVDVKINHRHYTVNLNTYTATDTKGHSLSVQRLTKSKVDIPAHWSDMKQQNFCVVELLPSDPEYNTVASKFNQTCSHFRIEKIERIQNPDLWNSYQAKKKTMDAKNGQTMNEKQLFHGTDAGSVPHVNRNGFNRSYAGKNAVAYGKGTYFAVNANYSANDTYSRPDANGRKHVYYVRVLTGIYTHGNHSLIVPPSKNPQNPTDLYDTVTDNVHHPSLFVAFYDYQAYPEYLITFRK
experimentalEndpoint: pIC50
Entry type: numeric. Quantity: pIC50, the -log10 of concentration in molar units.

Return pIC50 (reported value) for this compound: C[C@@H](CN1CC(C(=O)N2CCN(c3ncc(C(F)(F)F)cn3)CC2)C1)Nc1cn[nH]c(=O)c1C(F)(F)F
5.66

====

Reported pIC50 values follow for various molecules
molecular target: Protein mono-ADP-ribosyltransferase TIPARP (Homo sapiens, UniProt Q7Z3E1); assay: Inhibition of human recombinant N-terminal FLAG tagged PARP7 (400 to 657 end residues) incubated for 1 hr by ELISA assay
Entry type: numeric. Quantity: pIC50, the -log10 of concentration in molar units.

O=C(C1CN(CCNc2cn[nH]c(=O)c2C(F)(F)F)C1)N1CCN(c2ncc(C(F)(F)F)cn2)CC1 : 7.41
C[C@@H](CN1CC(C(=O)N2CCN(c3ncc(S(C)(=O)=O)cn3)CC2)C1)Nc1cn[nH]c(=O)c1C(F)(F)F : 7.53
C[C@@H](CN1CC(C(=O)N2CCN(c3ncc(C(F)(F)F)cn3)CC2)C1)Nc1cn[nH]c(=O)c1C(F)(F)F : 8.12

Moving on to the next molecule.
Return pIC50 (reported value) for this molecule: C[C@@H](CN1CC(C(=O)N2CCN(c3ncc(Br)cn3)CC2)C1)Nc1cn[nH]c(=O)c1C(F)(F)F
7.95

====

Reported IC50 at 6 days values follow for various molecules
experiment: Cytotoxicity against mouse AML12 cells assessed as inhibition of cell growth measured after 6 days by MTT assay; type: toxicity, cell-based

C[C@@H](COCCC(=O)N1CCN(c2ncc(C(F)(F)F)cn2)CC1)Nc1cn[nH]c(=O)c1C(F)(F)F : > 50 µM

Moving on to the next molecule.
Return IC50 at 6 days (reported value) for this molecule: C[C@@H](CN1CC(C(=O)N2CCN(c3ncc(C(F)(F)F)cn3)CC2)C1)Nc1cn[nH]c(=O)c1C(F)(F)F
> 50 µM

====

assay: Clearance in ICR mouse at 10 mg/kg, po measured upto 24 hrs by LC-MS/MS analysis; assay type: ADME, organism-based; settings: in vivo
experimentalEndpoint: CL/F
A complete answer gives the number and then names the unit.

C[C@@H](CN1CC(C(=O)N2CCN(c3ncc(C(F)(F)F)cn3)CC2)C1)Nc1cn[nH]c(=O)c1C(F)(F)F : 30.3 mL/min/kg

Moving on to the next molecule.
Return CL/F (reported value) for this molecule: C[C@@H](COCCC(=O)N1CCN(c2ncc(C(F)(F)F)cn2)CC1)Nc1cn[nH]c(=O)c1C(F)(F)F
259 mL/min/kg

====

Biological target: Protein mono-ADP-ribosyltransferase TIPARP (Homo sapiens, UniProt Q7Z3E1)
Sequence (Q7Z3E1 whole entry): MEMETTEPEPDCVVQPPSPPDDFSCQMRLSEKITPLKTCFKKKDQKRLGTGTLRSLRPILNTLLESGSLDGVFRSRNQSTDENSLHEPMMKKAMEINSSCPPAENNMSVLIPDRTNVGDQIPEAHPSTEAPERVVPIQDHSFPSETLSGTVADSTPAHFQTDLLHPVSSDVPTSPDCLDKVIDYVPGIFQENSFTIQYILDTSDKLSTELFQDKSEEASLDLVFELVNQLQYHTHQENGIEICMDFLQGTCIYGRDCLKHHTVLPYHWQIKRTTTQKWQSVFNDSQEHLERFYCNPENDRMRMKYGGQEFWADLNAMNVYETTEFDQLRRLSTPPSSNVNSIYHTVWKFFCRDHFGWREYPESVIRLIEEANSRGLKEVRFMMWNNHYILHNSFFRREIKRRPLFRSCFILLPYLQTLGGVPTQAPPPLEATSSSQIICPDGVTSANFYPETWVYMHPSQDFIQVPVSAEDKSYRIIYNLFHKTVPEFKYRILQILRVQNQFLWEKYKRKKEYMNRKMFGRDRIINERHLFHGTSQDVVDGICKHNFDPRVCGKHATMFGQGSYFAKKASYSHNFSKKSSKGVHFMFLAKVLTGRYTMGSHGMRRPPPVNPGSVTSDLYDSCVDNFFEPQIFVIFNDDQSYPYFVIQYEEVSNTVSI
Test: Inhibition of human recombinant N-terminal FLAG-tagged PARP7 (400 to 657 end residues) incubated for 1 hr by ELISA assay
experimentalEndpoint: IC50 (nM)
Provide only the numeric value, understood in nM.

For Protein mono-ADP-ribosyltransferase TIPARP (Homo sapiens, UniProt Q7Z3E1), give the measured IC50 of the entry C[C@@H](CN1CC(C(=O)N2CCN(c3ncc(C(F)(F)F)cn3)CC2)C1)Nc1cn[nH]c(=O)c1C(F)(F)F
7.6
